test system: K-562 leukemia; assay: NCI-60 one-dose screen, 48 h (100 = growth as untreated, 0 = no growth, -100 = all killed); conditions: 10 µM unless noted
This is part of a sample that, as a whole, favours compounds with a hit. Of some 83,000 tested, about 20% had one in any assay.
Reported growth values for a set of compounds
Provide only the numeric value, understood in %.

Some compounds with recorded growth:
* COc1ccc(/C=N/c2cc(C(C)(C)C)nn2-c2ccccc2)cc1 | 92.2
* COc1ccc(Cn2cc3c(c2)-c2oncc2CC3)cc1OC | 16.9
* COC(=O)C(C)[C@H]1CC[C@@H]2[C@]1(C)CC=C1[C@]23C=C[C@]2(C[C@@H](OC(C)=O)CC[C@]12C)C(C(=O)OC)C3C(=O)OC (stereo not given in full) | 48.8
* CCCCCCCCCC[N+](C)(C)C | 22.3

Summary: Cc1ccnc2c(NC(C)CCCN)cc(O)c(O)c12 (stereo not given) , K-562 leukemia, growth = 80.3

* * *

tested on: T-47D breast; assay: NCI-60 one-dose screen, 48 h (100 = growth as untreated, 0 = no growth, -100 = all killed); details: 10 µM unless noted
Compounds without any hit were thinned out: in the full panel of roughly 83,000, 20% have a hit. Calls of active or inactive are those of the source. Rule for the calls: active = growth percent below 10; inactive = the rest.
Consider the following molecules and their measured growth readings.

Use the examples below as a reference point.
• O=C(/C=C\c1ccccc1Cl)c1ccccc1 = 91.6% (inactive)
• O=C(O)c1ccc(-c2nn(-c3ccc(C(=O)O)cc3)cc2CNc2ccc(Br)cc2)cc1 = 96.6% (inactive)
• COc1cccc2c1n([O-])c1cccc(OC)c1[n+]2=O = 50.2% (inactive)
• O=C(O)c1ccc(Br)nc1 = 99.1% (inactive)
• O=C(Nc1ccc(-n2cc(-c3ccncc3)c(-c3ccc(Cl)c(O)c3)n2)cc1)c1cc(Cl)cc(Cl)c1 = 79.1% (inactive)
• COc1cc(CCNc2cnc3cc(N)cc(N)c3n2)cc(OC)c1 = 140% (inactive)

Per the record, CC(O)CN(CCO)CCN(CCO)CC(C)O (stereo unspecified) has growth of 100% (inactive)

Short answer for NC(N)=Nc1ccc(/C=C2\C=Cc3ccccc32)cc1 : growth was 50.6% (inactive)

Short answer for CCCCN(CCCC)c1ccc(C(=O)O)cc1 : growth was 94.7% (inactive)

Looking up O=P(OCCCl)(OCCCl)C(O)c1ccccc1Cl (stereo unspecified) , I see its growth listed as 98.2% (inactive)

Lab note: CCCNC(=O)Oc1ccc(/C(=C(/C)Cc2ccc(OC)cc2)c2ccc(OCCN3CCCC3)cc2)cc1 gave growth of 37% (inactive)

* * *

Here the recorded growth is given for each entry.
test system: OVCAR-4 ovarian; test: NCI-60 one-dose screen, 48 h (100 = growth as untreated, 0 = no growth, -100 = all killed); conditions: 10 µM unless noted
About 83,000 compounds went through this panel and 20% of them were active in at least one assay; those are over-represented in the sample as a whole. The source made the active and inactive calls. The calls were made as follows: active = growth percent below 10; inactive = the rest.

Measured on OVCAR-4 ovarian, COc1ccc(-c2cn3ccnc3c(-c3ccc4ncn(C5CCCCC5)c4c3)n2)cc1 has a documented growth of 53.4% (inactive)

Known value: OVCAR-4 ovarian growth of the compound O=C(NC1CCN(Cc2ccccc2)CC1)c1cc(-c2cccnc2)nc2ccc(Cl)cc12 equals 70.5% (inactive)

Given the compound Cc1nc(NC(=S)Nc2ccc(F)cc2)sc1C(=O)NNC(=S)Nc1ccc(F)cc1 and test system OVCAR-4 ovarian, the measured growth is 42.8% (inactive)

* * *

system: RXF 393 renal; experiment: NCI-60 one-dose screen, 48 h; settings: 10 µM unless noted
Compounds without any hit were thinned out: in the full panel of roughly 83,000, 20% have a hit. Calls of active or inactive are those of the source. The calls were made as follows: active = growth percent below 10; inactive = the rest.
Return exactly one item of yes (1) = active, no (0) = inactive

Would you please look over these solved cases?
• CCOC(=O)c1c(C)oc2ncnc(Nc3ccc(C(=O)NCCc4ccccc4)cc3)c12 = no (0)
• O=C(N/N=C\c1ccc(Cl)cc1)C(=O)N/N=C\c1ccc(Cl)cc1 = no (0)
• CC(=O)Nc1ccc(S(=O)(=O)Cl)cc1 = no (0)
• C#CCCCCCCC[C@@H]1OC(=O)[C@H]([C@@H](C)CC)NC(=O)[C@@H]([C@@H](C)CC)NC(=O)CC(=O)[C@@H]1C = no (0)
• C[C@]12C=CC(=O)C=C1[C@@H](F)C[C@@H]1[C@@H]2[C@@H](O)C[C@@]2(C)[C@H]1CC[C@]2(O)C(=O)CO = no (0)
• S=C(N/N=C/c1cc(Cl)cc(Cl)c1)NC12CC3CC(CC(C3)C1)C2 = no (0)

Can you look up the reported call for O=C(O)COc1ccc([N+](=O)[O-])cc1Cl for me? no (0)

Lab log entry: Cc1ccc(C(=O)C(Br)C(Br)c2ccccc2)cc1 (stereo not drawn) — outcome as called in the assay? no (0)

For O=C1Nc2ccccc2/C1=C/c1cn(CC(O)Cn2cc(/C=C3\C(=O)Nc4ccccc43)c3ccccc32)c2ccccc12 (stereo not drawn) , what call appears in the results of this test? yes (1)

Hi, do you know how Clc1ccc(N/N=C(\c2ccccc2)c2ccccn2)nc1 came out in this test? no (0)

How did this test come out for CCCCCCCCCCCCCCCCNC(=O)Nc1ccc(C)c(NC(=O)NCCCCCCCCCCCCCCCC)c1 ? no (0)

Which result was noted for this molecule in the test: COc1ccc(/C=N/c2cc(C(C)(C)C)nn2-c2ccccc2)cc1 no (0)

So what was the verdict on CNc1nc2ncn(C)c2c(=O)[nH]1 in this test? no (0)

How did this test come out for COC(=O)c1ccc2[nH]c(O)c(C(=Nc3ccc(N(C)C(=O)CN4CCN(C)CC4)cc3)c3cccc(OC)c3)c2c1 ? yes (1)

Called result for CCC(C)(C)c1ccc(OCCCCCCN2CCNCC2)cc1 no (0)

* * *

test system: K-562 leukemia; test: NCI-60 one-dose screen, 48 h; details: 10 µM unless noted
This is part of a sample that, as a whole, favours compounds with a hit. Of some 83,000 tested, about 20% had one in any assay. Activity calls are given as the source filed them. The calls were made as follows: active = growth percent below 10; inactive = the rest.
Output constraint: value belongs to TRUE (active), FALSE (inactive)

Some solved entries appear below for comparison.
* CSCc1ncc(-c2ccc(C(F)(F)F)cc2)c(NC2CCCCCC2)n1 | FALSE
* CCOC(=O)C1=C(C(F)(F)F)NC(=O)NC1CN1C(=O)c2ccccc2C1=O (stereo not drawn) | FALSE
* COc1cc(Cn2ccc3c2-c2oncc2CC3)cc(OC)c1 | FALSE
* Cc1ccc(C(=O)C(Br)C(Br)c2ccccc2)cc1 (stereo not drawn) | FALSE
* Cc1ncc(C(=O)Nc2ccc(CN3CCN(C)CC3)c(C(F)(F)F)c2)cc1C#Cc1c(N)ncc2ccc(F)cc12 | TRUE

Please let me know the test result on file for CCCC(=O)Nc1ccccc1C(=O)O . FALSE

// param item: CCCCCCCCCCCCCCCCCCOP(=O)(O)O ; yields the recorded call FALSE

Give the logged outcome of this assay for the following compound: C/C(CCC(=O)O)=N/Nc1ccc([N+](=O)[O-])cc1 FALSE

Which outcome did this test record for the compound O=C1c2cc([N+](=O)[O-])ccc2-c2cc(Cl)c(NC(=O)C(F)(F)F)cc21 ? FALSE

Assay result, entry CC(=O)Nc1nc(C)c(C(=O)N/N=C/c2cccs2)s1 — outcome? FALSE

Please let me know the test result on file for COC(=O)C(N)CC(C)C (stereo not drawn) . FALSE

Hi, sorry to bother you, what did the test record for CCCC(C)c1cc(Cc2cc(Cl)cc(Cl)c2O)c(O)c(Cc2cc(Cl)cc(Cl)c2O)c1 (stereo not drawn) ? TRUE

Hi team, can someone confirm the assay call for Cc1ccc2c(O)c(O)cc(NC(C)CCCN)c2n1 (stereo not drawn) ? FALSE

For CCCCS(=O)(=O)c1cc(Nc2ccc(O)c3c2C(=O)c2ccccc2C3=O)ccc1C , which call appears in the assay record? FALSE

Tell me the assay call for CC(=O)Nc1nc(C)c(C(=O)N/N=C/N2CCOCC2)s1 please. FALSE

For Brc1ccc(-c2nc3ccccc3s2)cc1 , what call appears in the results of this test? FALSE

GET /call?item= O=C1C(=O)c2ccccc2C(O)=C1CCCc1ccc(C2CCCC2)cc1 returns the recorded outcome of this test. FALSE

Hi team, can someone confirm the assay call for CCN(CC)c1ccc2nc3ccc(N=Nc4ccc(O)cc4)cc3[n+](-c3ccccc3)c2c1 ? FALSE

Recorded test call requested for O=Nc1ccc(O)c2ccccc12 FALSE

* * *

test system: K-562 leukemia; experiment: NCI-60 one-dose screen, 48 h (100 = growth as untreated, 0 = no growth, -100 = all killed); conditions: 10 µM unless noted
The panel holds about 83,000 compounds, 20% with a hit somewhere; the sample as a whole holds those more often.
Note to self: growth under 80% means Condition met, ties and anything higher get Condition not met.

• Cc1ccc(CC(=O)O)c(C)c1 = Condition not met

growth under 80%? Item: C[C@@H](c1ccc2c(c1)[nH]c1ccc(Cl)cc12)c1nc2ccc(Cl)cc2[nH]1 Condition met

In the record for CCCCCCCCc1ccc(CCC(N)(CO)CO)cc1 , is growth less than 80%? Condition met
